Catalogue of TGI values
system: UACC-62 melanoma; assay: NCI tumour cell line growth inhibition, 48 h
Quantity: TGI

Molecule	Tested Target	Test Value
C[C@]12C=CC(=O)C=C1CC[C@H]1[C@@H]3C[C@@H](O)[C@](O)(C(=O)CO)[C@@]3(C)C[C@H](O)[C@@]12F	UACC-62 melanoma	> 100 µM
CC(C)C1OC23CCCCC2C(C#N)(C#N)C1(C#N)C(=N)O3 (stereo not drawn)	UACC-62 melanoma	58 µM
COc1cc(-c2cc(=O)c3c(OC)c(OC)c(OC)c(OC)c3o2)c(OC)c(OC)c1OC	UACC-62 melanoma	49.1 µM
CNC(=S)NC1CCCCC1NC(=S)NC (stereo not drawn)	UACC-62 melanoma	> 100 µM
CC(C)(C)OC(=O)NCC(O)CNC(=O)OC(C)(C)C	UACC-62 melanoma	> 100 µM
Cc1ccc(Cl)cc1Nc1nc(C(F)(F)F)ccc1C(=O)N1CCN(c2ccc(F)cc2)CC1	UACC-62 melanoma	24.1 µM
Cc1cc(C)c(S(=O)(=O)N2CCCN(S(=O)(=O)c3c(C)cc(C)cc3C)OCCCON(S(=O)(=O)c3c(C)cc(C)cc3C)CCCN(S(=O)(=O)c3c(C)cc(C)cc3C)OCCCO2)c(C)c1	UACC-62 melanoma	> 100 µM
C=C(C)C(CC=C(C)C)CC12CC(CC=C(C)C)C(C)(C)C(CC=C(C)C)(C(=O)C(Cc3ccc(O)c(O)c3)=C1O)C2=O (stereo not drawn)	UACC-62 melanoma	> 100 µM

----------
tested on: CAKI-1 renal; assay: NCI tumour cell line growth inhibition, 48 h
Catalogue of TGI values
Quantity: TGI

In [3]: df
Out[3]:
                                    compound  quantity  test_value
 0  COc1ccc2nc3ccc(OC)cc3c(S(=O)CCCl)c2c1 (stereo not drawn)       TGI      6.9 µM
 1   Clc1coc2nc3ccccc3c(Nc3ccc4c(c3)OCO4)c12       TGI     10.6 µM
 2  COC(=O)C(C(=O)C(=O)Nc1cccc(OC)c1)c1cnc2ccccc2n1 (stereo not drawn)       TGI    > 100 µM
 3  NC(CCCCP(=O)(O)O)C(=O)O (stereo not drawn)       TGI    > 100 µM
 4  O=S(O)CCCCSSCC(O)C(O)CSSCCCCS(=O)O (stereo not drawn)       TGI    > 100 µM
 5  COc1ccc(CC2c3cc(Oc4cc(CC5c6cc(OC)c(OC)cc6CCN5C)ccc4O)c(OC)cc3CCN2C)cc1 (stereo not drawn)       TGI     9.99 µM
 6  C=C1CC(c2ccc(OCCCN3C(=O)c4ccccc4C3=O)c(OC)c2)OC1=O (stereo not drawn)       TGI     5.16 µM
 7  CC(C)(C)C(=O)OCC1CCC[N+]2(C)CCCCC12 (stereo not drawn)       TGI    > 100 µM
 8          O=C1CN=C(C[N+](=O)[O-])c2ccccc21       TGI    > 100 µM
 9  O=[N+]([O-])c1ccc(Cl)c(C=NC23CC4CC(CC(C4)C2)C3)c1       TGI     > 10 µM
10  Nc1nc(N)c2[nH]c(CNc3ccc(C(=O)O)cc3)nc2n1       TGI    > 100 µM
11  Cc1ccc(C(SCC(N)C(=O)O)(c2ccccc2)c2ccc(C)cc2)cc1 (stereo not drawn)       TGI     20.1 µM
12  c1ccc(N=C2SC(=NC3CCCCC3)N(C3CCCCC3)C2=Nc2ccccc2)cc1       TGI    > 100 µM
13              O=C(O)/C=N\Nc1nc2ccccc2[nH]1       TGI    > 100 µM
14   O=[N+]([O-])c1cc2oc(COc3ccccc3)nc2cc1Cl       TGI     67.6 µM
15  CNC(=S)NC1CCCCC1NC(=S)NC (stereo not drawn)       TGI    > 100 µM
16  CCc1nc(N)nc(N)c1-c1ccc2nn(-c3ccccc3)[n+]([O-])c2c1       TGI     18.2 µM
17  COc1ccc(/C=C(/C(=O)c2ccc(Cl)cc2)N2C=CC=CC2=C(C#N)C#N)cc1OC       TGI     5.69 µM
18                 O=C1CCCC/C(=C/c2ccccc2)N1       TGI    > 100 µM
19       O=C1OC(c2ccccc2)=N/C1=C/C=C/c1ccco1       TGI    > 100 µM
20  CC1(CCCO)CCCCCC(C)(CCCO)C1=O (stereo not drawn)       TGI    > 100 µM
21          O/N=C1/COC(C(F)(F)F)(C(F)(F)F)C1       TGI    > 100 µM
22  CCC[CH2][Ge]([CH2]CCC)([CH2]CCC)[O]C(=O)CC(=O)c1ccccc1       TGI     20.6 µM

----------
test system: NCI-H23 lung; assay: NCI tumour cell line growth inhibition, 48 h
Lab note: compare TGI against 30 µM. Equal or greater, write criterion met. Smaller, write criterion not met.

Molecule	Classification
CCN(CC)c1c(N(CC)CC)c(=O)c1=O	criterion not met
O=[N+]([O-])c1cc2oc(COc3ccccc3)nc2cc1Cl	criterion met
CS(=O)(=O)Nc1ccc(N2Cc3cnc4ccc5[nH]ccc2c5c34)cc1	criterion met
CCCCCCCCCCCCCCCCCCNc1ccn(C2OC(COP(=O)(O)OCC3OC(n4cc(C)c(=O)[nH]c4=O)CC3O)C(O)C2O)c(=O)n1 (stereo not given)	criterion met
Cc1cc(N(CCC#N)CCC#N)ccc1/C(N=Nc1ccc([N+](=O)[O-])cc1)=N\NC(=O)c1cc(Cl)ccc1C(=O)c1ccccc1	criterion met
CC(SC(C)C(=O)N/N=C/c1cccc(Cl)c1)C(=O)N/N=C\c1cccc(Cl)c1 (stereo not given)	criterion met
NS(=O)(=O)c1nn2c(Br)c(-c3ccccc3)nc2s1	criterion not met
COc1cc(Nc2cn[nH]c2-c2ccc(Cl)cc2)cc(OC)c1OC	criterion met
O=C(OC(=O)n1ccc2ccccc21)n1ccc2ccccc21	criterion met
O=C(Nc1ccc(OS(=O)(=O)c2ccccc2)cc1)C12CC3CC(CC(C3)C1)C2	criterion met
C=C(C)C(CC=C(C)C)CC12CC(CC=C(C)C)C(C)(C)C(CC=C(C)C)(C(=O)C(Cc3ccc(O)c(O)c3)=C1O)C2=O (stereo not given)	criterion met
COc1ccc(C2CC(=O)CC(c3ccc(OC)cc3)C23C(=O)NC(=O)NC3=O)cc1 (stereo not given)	criterion met
CC(C)C1OC23CCCCC2C(C#N)(C#N)C1(C#N)C(=N)O3 (stereo not given)	criterion met
CC1=Nc2ccccc2C1C(Cc1ccccc1N)c1c(C)[nH]c2ccccc12 (stereo not given)	criterion met
NC(Cc1cccc([N+](=O)[O-])c1)C(=O)O (stereo not given)	criterion met
CN(c1ccc(Cl)cc1)S(=O)(=O)c1cccc([N+](=O)[O-])c1	criterion met
CCSc1n/c(=C\c2ccco2)c2nnnn12	criterion met
Cc1ccc(Cl)cc1Nc1nc(C(F)(F)F)ccc1C(=O)N1CCN(c2ccc(F)cc2)CC1	criterion not met
O=C(O)CNc1cc(-c2ccccc2)nc(NCC(=O)O)n1	criterion met

----------
test system: U251 CNS; assay: NCI tumour cell line growth inhibition, 48 h
Quantity: TGI

>>> df
                                   compound  test_value
0  CCC(=O)NC(Nc1cccc(F)c1C)(C(F)(F)F)C(F)(F)F    > 100 µM
1  Cn1c(=O)c2c(nc(Nc3cc(=O)[nH]c(=O)[nH]3)n2Cc2ccccc2)n(C)c1=O    > 100 µM
2  Clc1c(Cl)c(Cl)c2nn(C3CCCO3)nc2c1Cl (stereo not given)    > 100 µM
3  O=S(=O)(Nc1cc(F)cc(Cl)c1)c1ccc(-c2cnc(C3CC3)o2)cc1     15.2 µM
4  O=C(O)c1nc(-c2ccccc2)ncc1-c1nnnn1-c1ccccc1    > 100 µM

----------
system: HT29 colon; experiment: NCI tumour cell line growth inhibition, 48 h
Catalogue of GI50 values
Quantity: GI50

Molecule	Test Value
CCOc1nc(-c2ccccc2)cc2c(O)c(-c3nnco3)[nH]c(=O)c12	> 100 µM
O=C(OCc1ccc2cccc(O)c2n1)N1CCN(C(=O)c2cc3cc(F)ccc3[nH]2)CC1	1.14 µM
O=S(=O)([O-])c1ccc2c(c1)-c1nc-2nc2[n-]c(nc3nc(nc4[n-]c(n1)c1ccc(S(=O)(=O)[O-])cc41)-c1cc(S(=O)(=O)[O-])ccc1-3)c1ccc(S(=O)(=O)[O-])cc21.[Cu+2].[Na+]	3.32 µM
COc1ccc(N(C)c2ncnc3occ(C)c23)cc1	< 0.01 µM
CC(C)=C[C@@H]1C[C@H](C)[C@H]2CC[C@H](C)C3=C2[C@](O)(OC3=O)[C@]1(C)O	> 100 µM
C=CC1CC12C(=O)C1OC2(C)C2C(=O)c3cc4ccccc4cc3C(=O)C12 (stereo unspecified)	27.5 µM
Clc1ccc2c(NCCCNc3nccc(Nc4ccc(Br)cc4)n3)ccnc2c1	1.26 µM
COc1ncnc(C2CC2)c1-c1ncc2cnn(Cc3ccc(-c4nc(C(F)(F)F)cn4C(C)C)cc3)c2n1	17.9 µM
COC(=O)/C=C/c1cc(O)c2oc(-c3ccc(O)c(O)c3)c(C(=O)OC)c2c1	3.24 µM
C[C@H]1c2cccc(O)c2C(O)=C2C(=O)[C@]3(O)C(O)=C(C(N)=O)C(=O)[C@@H](N(C)C)[C@@H]3[C@@H](O)[C@@H]21	3.43 µM
Cc1nc(N)sc1-c1ccnc(Nc2ccc(N3CCOCC3)cc2)n1	2.11 µM
